- System: NCI-H1299
- assayNotes: Cytotoxicity against human NCI-H1299 cells after 72 hrs by alamar blue assay
- Format: functional, cell-based
- testConditions: NCI-H1299, 72 h
Provide the recorded log10 of IC50 for the entries that follow.
Kindly note that the scale is log10 and the underlying IC50 is in µM.

Write down log10 of IC50 measured for item CCCCCOC(=O)/C=C/c1ccc(O)c(O)c1
0.67

Write down log10 of IC50 measured for item O=C(/C=C/c1ccc(O)c(O)c1)OCCCO[N+](=O)[O-]
0.90

Write down log10 of IC50 measured for item CC(C)COC(=O)/C=C/c1ccc(O)c(O)c1
1.58

Write down log10 of IC50 measured for item CCCCOC(=O)/C=C/c1ccc(O)c(O)c1 [BUTYL CAFFEATE]
0.76

Write down log10 of IC50 measured for item CC(C)OC(=O)/C=C/c1ccc(O)c(O)c1
1.49

Write down log10 of IC50 measured for item CCCCOC(=O)/C=C/c1ccc(O)c(OC)c1
0.92

Write down log10 of IC50 measured for item CCCOC(=O)/C=C/c1ccc(O)c(O)c1
0.77

Write down log10 of IC50 measured for item COc1cc(/C=C/C(=O)Oc2ccc(OCc3c(-c4ccccc4)no[n+]3[O-])cc2)ccc1O
1.45

Write down log10 of IC50 measured for item COc1cc(/C=C/C(=O)OCCCCO[N+](=O)[O-])ccc1O
0.65

Write down log10 of IC50 measured for item CCCOC(=O)/C=C/c1ccc(O)c(OC)c1
1.61

Write down log10 of IC50 measured for item CCOC(=O)/C=C/c1ccc(O)c(O)c1 [ETHYL CAFFEATE]
0.69

Write down log10 of IC50 measured for item COc1cc(/C=C/C(=O)OCCCCCO[N+](=O)[O-])ccc1O
1.32

Write down log10 of IC50 measured for item COc1cc(/C=C/C(=O)OC/C=C/CO[N+](=O)[O-])ccc1O
0.37

Write down log10 of IC50 measured for item COc1cc(/C=C/C(=O)OCc2c(-c3ccccc3)no[n+]2[O-])ccc1O
1.11

Write down log10 of IC50 measured for item COC(=O)/C=C/c1ccc(O)c(O)c1 [METHYLCAFFEATE]
0.55

Write down log10 of IC50 measured for item COc1cc(/C=C/C(=O)OCCC(C)C)ccc1O [ISOPENTYL FERULATE]
1.50

Write down log10 of IC50 measured for item O=C(/C=C/c1ccc(O)c(O)c1)OC/C=C/CO[N+](=O)[O-]
-0.39

Write down log10 of IC50 measured for item COc1cc(/C=C/C(=O)OC(C)CCOc2no[n+]([O-])c2S(=O)(=O)c2ccccc2)ccc1O (stereo not drawn)
-0.39

Write down log10 of IC50 measured for item COc1cc(/C=C/C(=O)OCCOCCOc2no[n+]([O-])c2S(=O)(=O)c2ccccc2)ccc1O
-0.31

Write down log10 of IC50 measured for item CC(C)CCOC(=O)/C=C/c1ccc(O)c(O)c1
1.25

Write down log10 of IC50 measured for item O=C(/C=C/c1ccc(O)c(O)c1)OCCCCO[N+](=O)[O-]
0.50

Write down log10 of IC50 measured for item COc1cc(/C=C/C(=O)OCC(C)C)ccc1O
1.58

Write down log10 of IC50 measured for item CCOC(=O)/C=C/c1ccc(O)c(OC)c1 [ETHYL FERULATE]
1.57

Hello, the source for this data is ChEMBL document CHEMBL2086326, in case you need it.
